The reported measurements were obtained from PubChem BioAssay (NCI).

run_description: NCI Yeast Anticancer Drug Screen. Data for the cln2 rad14 strain (AID 165);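 further: 0% = growth equal to vehicle treated cultures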
test_context: S. cerevisiae cln2 rad14 strain, at 50.0 µM, active compounds read high
Compounds without any hit were thinned out: in the full panel of roughly 79,000, 15% have a hit.
measure: growth inhibition (%)

{"compound": "COc1cc2c(c(-c3cn(C)c4ccccc34)c1OC)OCO2", "experimental_value": -30.6}
{"compound": "CC(=O)OCCc1ccc(CCc2ccccc2)cc1", "experimental_value": -31.6}
{"compound": "C=C1C(=O)OC(CCCCCCCCCCCCC)C1C(=O)O (stereo unspecified)", "experimental_value": 85}
{"compound": "CC1=NN(c2ccccc2)C(=O)C12[C@H](c1ccccc1)C2(C#N)C#N (stereo partly specified)", "experimental_value": 66.4}
{"compound": "Cc1c(N2CCCC2)cc2c(c1NC(=O)c1ccccc1Cl)C(C)(C)CC2(C)C", "experimental_value": 79.3}
{"compound": "CCCCCCCCCCCCCCCCN[Si](NCCCCCCCCCCCCCCCC)(NCCCCCCCCCCCCCCCC)NCCCCCCCCCCCCCCCC", "experimental_value": 85.5}
{"compound": "N#CC1(C#N)C(C#N)(C#N)C12CCC2", "experimental_value": -2.45}
{"compound": "CC(C)C1=CC(=O)C2=C(CCC3C(C)(C(=O)O)CCC[C@]23C)C1=O (stereo partly specified)", "experimental_value": 90.7}
{"compound": "COc1ccc(C2=NN(c3ccccc3)C[N+](c3ccc(OC)cc3)=N2)cc1", "experimental_value": 96.4}
{"compound": "O=[N+]([O-])c1ccc(S(=O)(=O)C/C=C/CCl)c([N+](=O)[O-])c1", "experimental_value": 99.5}
{"compound": "CCCCc1c(O)c(N=NC(=O)C[n+]2ccccc2)c2ccccc2c1O", "experimental_value": 40.1}
{"compound": "CC(NC(=O)OCc1ccccc1)C(=O)NNc1ccccc1Cl (stereo unspecified)", "experimental_value": 98.2}
{"compound": "O=S(=O)(O)C(O)c1ccc2ccc3cccc4ccc1c2c34 (stereo unspecified)", "experimental_value": 77.5}
{"compound": "COc1ccc2c(c1)c(=O)c1c(NCCN(C)C)ccc3nnn2c31", "experimental_value": 18.9}
{"compound": "O=C(C=P(c1ccccc1)(c1ccccc1)c1ccccc1)c1ccccc1-c1ccccc1C(=O)C=P(c1ccccc1)(c1ccccc1)c1ccccc1", "experimental_value": 88.5}
{"compound": "CN(C)CCCNc1c2ccccc2nc2cccc([N+](=O)[O-])c12", "experimental_value": 89.2}
{"compound": "Cc1ccc(Oc2ccc(C(=O)C(CN(C)C)CN(C)C)cc2)cc1", "experimental_value": 95.6}
{"compound": "O=C(O)C1(Cc2ccc3c(c2)CCC3)Cc2cc3c(cc2C1)CCC3", "experimental_value": 82}
{"compound": "COc1ccc2c(c1)[n+]([O-])c(-c1ccc(Cl)c(Cl)c1)c(N)[n+]2[O-]", "experimental_value": 99.3}
{"compound": "COC1OC(CBr)C(OC(c2ccccc2)(c2ccccc2)c2ccccc2)C(OC(c2ccccc2)(c2ccccc2)c2ccccc2)C1OC(c1ccccc1)(c1ccccc1)c1ccccc1 (stereo unspecified)", "experimental_value": 96.5}
{"compound": "Cc1cc(=O)oc2c3c(ccc12)OC(c1ccc(Br)cc1)CC3=O (stereo unspecified)", "experimental_value": -12.8}
{"compound": "CC(=O)C(C=O)C(C)=O.CC(=O)CC(C)=O.CC(=O)CC(C)=O.[Ru]", "experimental_value": 36}
{"compound": "CC(=O)c1cccc(NC(=O)C(=O)NNc2n[nH]c(=S)n2N)c1", "experimental_value": 92.4}
{"compound": "CCOC(=O)C(=O)Nc1nc2c(s1)C(=O)c1ccccc1C2=O", "experimental_value": 90}
{"compound": "CCCCCC(Oc1ccc(Cl)cc1)C(=O)O (stereo unspecified)", "experimental_value": 75.5}
{"compound": "CC(=O)Oc1ccc(N=[N+]([O-])c2ccc(OC(C)=O)cc2)cc1", "experimental_value": 18.4}
{"compound": "C(=P(c1ccccc1)(c1ccccc1)c1ccccc1)[P+](c1ccccc1)(c1ccccc1)c1ccccc1", "experimental_value": 98.7}
{"compound": "O=C1C(Cl)=C(Nc2cc(Cl)ccc2Cl)C(=O)c2ccccc21", "experimental_value": 78.8}
{"compound": "O=C1NC(CSSCC2NC(=O)N(c3ccccc3)C2=O)C(=O)N1c1ccccc1 (stereo unspecified)", "experimental_value": 58.1}
{"compound": "C=CCOC(=O)CCC(=O)N(CC)CC", "experimental_value": 72.5}
{"compound": "C=C1C(=O)O[C@@H]2C[C@@]3(C)CCC[C@H](C)C3=C[C@H]12", "experimental_value": 41.5}
